All figures here come from patent US20220185900A1.

- tested-target: T1, Macaca fascicularis (mf) RET.mmh (Macaca fascicularis)
- T1 construct: also called monkey RET
- T1 chain: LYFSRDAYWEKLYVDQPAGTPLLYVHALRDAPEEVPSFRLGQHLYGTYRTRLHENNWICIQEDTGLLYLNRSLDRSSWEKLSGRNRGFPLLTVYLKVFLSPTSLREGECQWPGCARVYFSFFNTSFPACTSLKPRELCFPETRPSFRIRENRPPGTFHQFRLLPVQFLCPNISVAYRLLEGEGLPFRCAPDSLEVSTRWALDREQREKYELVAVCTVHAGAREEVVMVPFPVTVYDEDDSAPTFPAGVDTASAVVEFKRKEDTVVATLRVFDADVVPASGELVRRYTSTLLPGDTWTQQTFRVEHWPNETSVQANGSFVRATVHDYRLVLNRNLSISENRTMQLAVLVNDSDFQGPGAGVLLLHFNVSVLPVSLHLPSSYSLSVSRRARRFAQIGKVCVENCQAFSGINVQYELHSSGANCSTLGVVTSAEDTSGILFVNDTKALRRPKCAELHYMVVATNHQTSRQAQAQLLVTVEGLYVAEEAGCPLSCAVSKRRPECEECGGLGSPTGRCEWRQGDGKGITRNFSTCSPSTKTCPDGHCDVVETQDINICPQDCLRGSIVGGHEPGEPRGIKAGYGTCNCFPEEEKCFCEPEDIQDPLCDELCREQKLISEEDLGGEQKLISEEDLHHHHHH
- test-name: SPR Biacore T200, mAb capture, 37 C
- Protocol: Binding affinities and kinetic constants of human anti-RET antibodies were determined by surface plasmon resonance (Biacore T200) at […] (Tables 2-3). […] Binding equilibrium dissociation constants (KD) and dissociative half-lives (t_{1/2}) were calculated from the kinetic rate constants as: KD [M]=kd/kₐ; and t_{1/2}(min)=(ln2/(60*kd). Calculations were performed using BiacoreT200 evaluation software v1.0.
observation-type: koff (s⁻¹)
Give just the number in s⁻¹; leave the unit off.

Completed entries (count: 2):
{"columns": ["binder", "observation-type", "unit-abbrev", "observed-value"],
 "data": [
  ["H4H8066P (antibody, human IgG4, V domains shown, human IgG4 Fc (H4H prefix)) VH: EVQLVESGGGLVQPGGSLRLSCEASGFTFSRYAMTWVRQAPGKGLEWVSGISGSGGSTFYVDSLQGRFTLSRDNSKHTLFLQMNSLRAEDTAIYYCAKENTYGHFDYWGQGTLVTVSS VL: DIQLTQSPSFLSASVGDRVTITCWASQDISTYLAWYQQKPGKAPQVLIYAASSLQYGVPSRFSGSGSGTEFTLTITSLQPEDFATYYCQQLIGYPYIFGQGTKLEIK", "koff", "s⁻¹", 0.00323],
  ["H4H8076P (antibody, human IgG4, V domains shown, human IgG4 Fc (H4H prefix)) VH: QVQLQQSGPGLVKPSQTLSLTCAISGDSVSSNSVAWNWIRQSPSRGLEWLGRTYYRSNWYNTYAVSVKSRITIDPDTSKNQFSLQLNSVTPEDTALYYCARGHRYSGSYFDYWGQGTLVTVSS VL: DIQMTQSPSSLSASVGDRVTITCRASQNINSYFNWYQQKPGKAPKLLIYAASSLQSGVPSRFSGGGSGTDFTLTISSLQPEDFATYYCQQTYTIPWTFGQGTKVEIK", "koff", "s⁻¹", 0.0014]
]}

Kindly note the recorded koff for H4H8046P (antibody, human IgG4, V domains shown, human IgG4 Fc (H4H prefix)) VH: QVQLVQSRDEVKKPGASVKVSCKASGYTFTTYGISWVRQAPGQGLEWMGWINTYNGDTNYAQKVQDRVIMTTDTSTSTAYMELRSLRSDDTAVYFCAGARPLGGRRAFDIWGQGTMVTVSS VL: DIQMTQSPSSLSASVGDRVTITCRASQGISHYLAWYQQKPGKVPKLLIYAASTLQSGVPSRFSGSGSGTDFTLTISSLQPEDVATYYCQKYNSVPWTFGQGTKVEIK , which is 0.00135

Kindly note the recorded koff for H4H8067P (antibody, human IgG4, V domains shown, human IgG4 Fc (H4H prefix)) VH: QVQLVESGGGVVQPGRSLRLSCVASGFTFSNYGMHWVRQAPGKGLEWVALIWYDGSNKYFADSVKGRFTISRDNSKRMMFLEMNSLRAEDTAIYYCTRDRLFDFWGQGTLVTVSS VL: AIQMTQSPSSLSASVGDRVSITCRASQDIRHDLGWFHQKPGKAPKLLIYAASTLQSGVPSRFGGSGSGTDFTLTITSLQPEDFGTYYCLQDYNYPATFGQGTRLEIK , which is 0.0603
